measurement-type: melting point

Guide cases for melting point, answers given:
{"columns": ["compound", "melting point"],
 "data": [
  ["Cc1cc(C2=NNC(=O)CC2C)cc(Cl)c1OCCO (centres unmarked)", "157.4 to 157.6 °C"],
  ["Cc1c(OCCCCO)ccc(C2=NNC(=O)CC2C)c1O (centres unmarked)", "178.7 to 179.9 °C"],
  ["CC1CC(=O)NN=C1c1ccc(OCCCO)c(Cl)c1O (centres unmarked)", "225 to 225.3 °C"],
  ["Cc1cc(C2=NNC(=O)CC2C)cc(Cl)c1OCCCO (centres unmarked)", "129.7 to 132.6 °C"],
  ["Cc1c(OCCCO)ccc(C2=NNC(=O)CC2C)c1O (centres unmarked)", "199.1 to 200.1 °C"],
  ["CC1CC(=O)NN=C1c1cc(Cl)c(OCCCO)c(Br)c1 (centres unmarked)", "153 to 156.6 °C"],
  ["CC1CC(=O)NN=C1c1ccc(OCCCCO)c(Cl)c1O (centres unmarked)", "204.5 to 204.9 °C"]
]}

Now let's try a different one.
-- ask Entry under review: C=Cc1c(OCCCCO)ccc(C2=NNC(=O)CC2C)c1F (centres unmarked) . Reported melting point?
-- reply 106.4 to 107.4 °C

Hey, just so you know, these numbers are from patent US10611731B2.
